- System: M14 melanoma
- method: NCI tumour cell line growth inhibition, 48 h
quantity: TGI

Looking up CC1(C)CC(=O)C2=C(C1)OC1=C(C(=O)CC(C)(C)C1)C2CC(c1ccccc1)c1ccc(O)c(O)c1O (centres undefined) , I see its TGI listed as > 10 µM

Looking up O=P(O)(O)c1ccccc1 (tested in a mixture with another compound) , I see its TGI listed as > 100 µM

Looking up COc1cc(CCCOC(=O)/C=C/c2ccc(O)c(O)c2)cc(O)c1O , I see its TGI listed as > 100 µM

Looking up COC1=CC(=O)[C@H]2[C@H](C)C(c3ccccc3)[C@@]2(C)C1=O (some centres undefined) , I see its TGI listed as > 100 µM

----------
Could you please report measured GI50 for the items listed next?
- System: KM12 colon
- method: NCI tumour cell line growth inhibition, 48 h

Looking up COc1ccc(C(=O)c2ccc(OC)c(OC)c2OC)cc1 , I see its GI50 listed as 0.492 µM

Looking up CN(C)c1ccc(N=Cc2c([O-])ccc3ccccc23)cc1.[C-]#[O+].[C-]#[O+].[Ir] , I see its GI50 listed as 18 µM

Looking up OCCCN=NNc1ccc(-c2nc3ccccc3[nH]2)cc1 , I see its GI50 listed as 5.12 µM

----------
Could you please report measured TGI for the items listed next?
- Test system: ACHN renal
- method: NCI tumour cell line growth inhibition, 48 h

Entry OC12COc3ccccc3C1Oc1ccccc1C2 (configuration not stated) : TGI on ACHN renal = > 100 µM

Entry COc1ccc2nc3ccc(OC)cc3c(S(=O)(=O)Cc3ccc([N+](=O)[O-])cc3)c2c1 : TGI on ACHN renal = > 100 µM

Entry COc1cc2c(cc1OC)-c1cc3cc(OC)c(OC)cc3n1CC2 : TGI on ACHN renal = 85.9 µM

Entry CC(C)(C)N(Cc1ccc2c(c1)OCO2)C(=O)/C=C\S(=O)c1ccccc1 (configuration not stated) : TGI on ACHN renal = 15.2 µM

Entry CON(C)C(C#N)=C(C#N)C#N : TGI on ACHN renal = > 10 µM

Entry O=C(OCc1ccccc1)N1CCN(/[N+]([O-])=N/Oc2ccc([N+](=O)[O-])cc2[N+](=O)[O-])CC1 : TGI on ACHN renal = 26.6 µM

Entry CSc1nc(-c2cc3c(c(SC)n2)CCCCC3)cc2c1CCCCC2 : TGI on ACHN renal = > 100 µM

Entry COc1cc(/C=C/c2cc(/C=C/c3ccc(O)c(OC)c3)n(-c3c(C)cccc3C)c(=O)n2)ccc1O : TGI on ACHN renal = 10.6 µM

Entry CC1=C2c3c(C)ccc4ccc(C)c(c34)C2(O)C(C)C1=O (configuration not stated) : TGI on ACHN renal = > 100 µM

Entry CCN(CC)c1cc(/C=C/c2ccc(OC)c(OC)c2)nc2cc(F)c(F)cc12 : TGI on ACHN renal = 9.76 µM

Entry CC1(c2nc3cc(Cl)c(Cl)cc3[nH]2)CCC(CO)C(C)(C)O1 (configuration not stated) : TGI on ACHN renal = > 100 µM

Entry O=c1cc(N2CCOCC2)[nH]c(=O)n1-c1cccc(C(F)(F)F)c1 : TGI on ACHN renal = > 100 µM

Entry NC(CSC(c1ccccc1)(c1ccccc1)c1ccc(Cl)cc1)C(=O)O (configuration not stated) : TGI on ACHN renal = > 78.4 µM

Entry CC(OC(=O)NCn1cc(-c2ccccc2)nn1)c1ccccc1 (configuration not stated) : TGI on ACHN renal = > 100 µM

Entry CC1(C)CC(=O)C2=C(C1)c1c(ccc3ccccc13)NC2c1cn(Cc2ccc(Cl)cc2)c2ccccc12 (configuration not stated) : TGI on ACHN renal = > 100 µM

Entry CCCCCCOc1ccc(C(=O)NOCc2ccccc2)cc1 : TGI on ACHN renal = > 100 µM

Entry O=[N+]([O-])c1cccc2nc3ccccc3c(NCCc3cccc[n+]3[O-])c12 : TGI on ACHN renal = 0.039 µM
